Target Desc: WDR5 (Homo sapiens (Human))
Test Method Notes: Surface Plasmon Resonance (SPR) assay, KD and residence time
Format: binding
Conditions Used: surface plasmon resonance (SPR); read-out: WDR5 binding affinity (KD)
Measurement Type: Kd (nM)
Give just the number in nM; leave the unit off.

Lookup: Given C[C@@H]1CN(c2ncc(-c3cc(NC(=O)c4c[nH]c(=O)cc4C(F)F)c(N4CCN(C)[C@H](C)C4)cc3F)cn2)CCO1 (stereo in doubt) , state its recorded Kd.
Found: 0.899

Lookup: Given C[C@@H]1CN(c2cc(F)c(-c3ccc(C(=O)N(C)CC4CC4)c(F)c3)cc2NC(=O)c2c[nH]c(=O)cc2C(F)(F)F)C[C@H](C)N1C , state its recorded Kd.
Found: 1.29

Lookup: Given C[C@@H]1CN(c2cc(F)c(-c3cccc4scnc34)cc2NC(=O)c2cn(C)c(=O)cc2C(F)F)C[C@H](C)N1C , state its recorded Kd.
Found: 20.4

Lookup: Given CC1CN(c2cc(F)c(C3=CCCN(c4ncc(C#N)s4)C3)cc2NC(=O)c2c[nH]c(=O)cc2C(F)F)CCN1C (stereo in doubt) , state its recorded Kd.
Found: 2.49

Lookup: Given C[C@@H]1CN(c2ccc(-c3cc(NC(=O)c4c[nH]c(=O)cc4C(F)F)c(N4CCN(C)[C@@H](C)C4)cc3F)cn2)C[C@H](C)O1 , state its recorded Kd.
Found: 0.959

Lookup: Given CC1CN(c2cc(F)c(C3=CCCN(C(=O)OC4CC(F)(F)C4)C3)cc2NC(=O)c2c[nH]c(=O)cc2C(F)F)CCN1C (stereo in doubt) , state its recorded Kd.
Found: 2.02

Lookup: Given C[C@@H]1CN(c2cc(F)c(C3=CCN(C(=O)N4CCCC4)C3)cc2NC(=O)c2c[nH]c(=O)cc2C(F)(F)F)C[C@H](C)N1C , state its recorded Kd.
Found: 1.91

Lookup: Given C[C@@H]1CN(c2ncc(-c3cc(NC(=O)c4ccc(F)cc4C(F)(F)F)c(N4CCN(C)[C@@H](C)C4)cc3F)cn2)C[C@H](C)O1 (racemic) , state its recorded Kd.
Found: 0.296

Lookup: Given C[C@@H]1CN(c2ncc(-c3cc(NC(=O)c4ccc(F)cc4C(F)(F)F)c(N4CCN(C)[C@@H](C)C4)cc3F)cn2)CCO1 , state its recorded Kd.
Found: 1.08

Lookup: Given C[C@@H]1CN(c2cc(F)c(-c3ncc(CN4CCOCC4)s3)cc2NC(=O)c2cn(C)c(=O)cc2C(F)F)C[C@H](C)N1C , state its recorded Kd.
Found: 51.8

Lookup: Given O=C(Nc1cc(-c2cnc(N3CCOCC3)nc2)c(F)cc1N1C[C@H]2CCN[C@H]2C1)c1c[nH]c(=O)cc1C(F)(F)F (stereo in doubt) , state its recorded Kd.
Found: 168

Lookup: Given C[C@@H]1CN(c2cc(F)c(C3=CCN(C(=O)OC4(C)CCC4)CC3)cc2NC(=O)c2c[nH]c(=O)cc2C(F)(F)F)C[C@H](C)N1C , state its recorded Kd.
Found: 4.27

Lookup: Given C[C@@H]1CN(c2cc(F)c(-c3csc(C(=O)N4CCOCC4)n3)cc2NC(=O)c2c[nH]c(=O)cc2C(F)(F)F)C[C@H](C)N1C , state its recorded Kd.
Found: 2.8

Lookup: Given CC(C)COC(=O)N1CCC=C(c2cc(NC(=O)c3c[nH]c(=O)cc3C(F)(F)F)c(N3C[C@@H](C)N(C)[C@@H](C)C3)cc2F)C1 , state its recorded Kd.
Found: 2.75

Lookup: Given CCOC(=O)N1CCC=C(c2cc(NC(=O)c3c[nH]c(=O)cc3C(F)F)c(N3C[C@@H](C)N(C)[C@@H](C)C3)cc2F)C1 , state its recorded Kd.
Found: 1.97

Lookup: Given C[C@@H]1CN(c2cc(F)c(C3=CCN(C(=O)OC4(C)CCC4)C3)cc2NC(=O)c2c[nH]c(=O)cc2C(F)(F)F)C[C@H](C)N1C , state its recorded Kd.
Found: 0.407

Lookup: Given C[C@@H]1CN(c2cc(F)c(-c3cc(F)c(C(=O)NC4CCCCC4)c(F)c3)cc2NC(=O)c2c[nH]c(=O)cc2C(F)(F)F)C[C@H](C)N1C , state its recorded Kd.
Found: 2.03

Lookup: Given C[C@@H]1CN(c2ncc(-c3cc(NC(=O)c4ccc(F)cc4C(F)(F)F)c(N4C[C@@H](C)N(C)[C@@H](C)C4)cc3F)cn2)CCO1 , state its recorded Kd.
Found: 3.4

Lookup: Given C[C@@H]1CN(c2nccc(-c3cc(NC(=O)c4cn(C)c(=O)cc4C(F)F)c(N4C[C@@H](C)N(C)[C@@H](C)C4)cc3F)n2)C[C@H](C)O1 , state its recorded Kd.
Found: 5.6

Lookup: Given C[C@@H]1CN(c2cc(F)c(C3=CCN(c4ccnc(C#N)n4)CC3)cc2NC(=O)c2c[nH]c(=O)cc2C(F)(F)F)C[C@H](C)N1C , state its recorded Kd.
Found: 0.72

Lookup: Given C[C@@H]1CN(c2nccc(-c3cc(NC(=O)c4c[nH]c(=O)cc4C(F)(F)F)c(N4CCN(C)[C@H](C)C4)cc3F)n2)CCO1 (stereo in doubt) , state its recorded Kd.
Found: 0.737

Lookup: Given CC1CN(c2cc(F)c(-c3ccc(N4C[C@@H](C)O[C@@H](C)C4)nc3)cc2NC(=O)c2ccc(F)cc2C(F)(F)F)CCN1C (stereo in doubt) , state its recorded Kd.
Found: 1.93

Lookup: Given O=C(Nc1cc(-c2cnc(N3CCOCC3)nc2)c(F)cc1N1CCN(C2CC2)CC1)c1c[nH]c(=O)cc1C(F)(F)F , state its recorded Kd.
Found: 23.5
